Cited source for all entries: PubChem BioAssay AID485297

Assay: qHTS Assay for Rab9 Promoter Activators; note: nearly all actives have a fitted effect of over 60% in size
Conditions: Huh7 Rab9 promoter-luciferase reporter, luminescence, 24 h; series mostly up to 9.22 µM
Screen size: about 320,000 compounds; about 9,100 (2.8%) were called active. Another 3% or so got no clear call; they are omitted. Calls come from the whole dose curve; as a rule, active = well fitted activation curve with a large enough effect; inconclusive = small, poorly fitted or top-dose-only effect; inactive = no such curve, though single readings can be large or run the other way. This is one part of a sample in which actives are shown more often than they occur.
Response enum: yes (1) (active), no (0) (inactive)

stdin: Which outcome was entered for the molecule Cc1ccc(C(=O)OCC(=O)NCc2cc(C)c(O)c(C)c2)cc1S(=O)(=O)N1CCCCC1 in this test?
stdout: no (0)

stdin: Which outcome was entered for the molecule O=C(/C=C/c1ccc(N2CCOCC2)cc1)c1ccccc1 in this test?
stdout: yes (1)

stdin: Which outcome was entered for the molecule O=C(CN1CCN(S(=O)(=O)/C=C/c2ccccc2)CC1)Nc1ccc(N2CCOCC2)cc1 in this test?
stdout: no (0)

stdin: Which outcome was entered for the molecule COc1ccc(C)cc1NC(=O)c1ccc(-c2ccc(C(C)=O)cc2)o1 in this test?
stdout: no (0)

stdin: Which outcome was entered for the molecule O=S(=O)(NCCCCCCNS(=O)(=O)c1c(F)cccc1F)c1ccc2c(c1)OCCO2 in this test?
stdout: no (0)

stdin: Which outcome was entered for the molecule COCCN(C(=O)CSCc1ccc(C)cc1)c1c(N)n(CC(C)C)c(=O)[nH]c1=O in this test?
stdout: no (0)

stdin: Which outcome was entered for the molecule O=C(O)c1ccc2c(c1)C(=O)N(c1ccc(/C=C/C(=O)c3ccccc3)cc1)C2=O in this test?
stdout: no (0)

stdin: Which outcome was entered for the molecule CC(=O)Nc1ccc(/C=C/C(=O)c2ccccc2)cc1 in this test?
stdout: yes (1)

stdin: Which outcome was entered for the molecule CC(OC(=O)/C=C/c1ccccc1)C(=O)Nc1ccc(C(N)=O)cc1 (stereo unspecified) in this test?
stdout: no (0)

stdin: Which outcome was entered for the molecule CCOC(=O)c1ccc(NC(=O)c2cccnc2)cc1 in this test?
stdout: no (0)

stdin: Which outcome was entered for the molecule CCc1cc(C(=O)Nc2nnc(C3CC3)s2)sc1C in this test?
stdout: no (0)
